Test system: SKOV3 ovarian cancer cells
Assay: Therapeutic index (phototoxicity IC90 vs dark toxicity IC10)
Type: cell-based, human
Experimental: The phototoxicity and inherent cytotoxicity (i.e. “dark toxicity”) of purpurin analogues were assessed as previously using SKOV3 ovarian cancer cells. […] Phototoxicity IC90 values and dark toxicity IC10 values were calculated using a log[inhibitor]-vs normalized response dose curve with variable slope, using the formula Y=100/(1+(IC90/X)^HillSlope (phototoxicity IC90)) or Y=100/(1+(IC10/X)^HillSlope (dark toxicity IC10)). […]
result type: Therapeutic Index

[
  {
    "compound": "C=Cc1c(C)c2cc3nc(c(CC(=O)N[C@@H](CC(=O)O)C(=O)O)c4[nH]c(cc5nc(cc1[nH]2)C(C)=C5CC)c(C)c4C(=O)O)[C@@H](CCC(=O)O)[C@@H]3C [Talaporfin sodium, reference compound]",
    "experimental target": "SKOV3 ovarian cancer cells",
    "Therapeutic Index": 0.49
  },
  {
    "compound": "CCCCCCN1C(=O)c2c3nc(cc4[nH]c(cc5nc(cc6[nH]c2c(c6C)C1=O)C(CC)=C5C)c(COC(=O)NCCC[P+](c1ccccc1)(c1ccccc1)c1ccccc1)c4C)[C@@H](C)[C@@H]3CCC(=O)OC",
    "experimental target": "SKOV3 ovarian cancer cells",
    "Therapeutic Index": 1731.09
  },
  {
    "compound": "C=Cc1c(C)c2cc3nc(c4c5[nH]c(cc6nc(cc1[nH]2)C(C)=C6CC)c(C)c5C(=O)N(CCC[P+](c1ccccc1)(c1ccccc1)c1ccccc1)C4=O)[C@@H](CCC(=O)N(C)CCOCCOC)[C@@H]3C",
    "experimental target": "SKOV3 ovarian cancer cells",
    "Therapeutic Index": 4991.00
  },
  {
    "compound": "CCCCCCN1C(=O)c2c3nc(cc4[nH]c(cc5nc(cc6[nH]c2c(c6C)C1=O)C(CC)=C5C)c(CN(C)C(=O)CCCC[P+](c1ccccc1)(c1ccccc1)c1ccccc1)c4C)[C@@H](C)[C@@H]3CCC(=O)OC",
    "experimental target": "SKOV3 ovarian cancer cells",
    "Therapeutic Index": 2352.38
  }
]

Now turn to the next compound.
Lookup result for CCCCCCN1C(=O)c2c3nc(cc4[nH]c(cc5nc(cc6[nH]c2c(c6C)C1=O)C(CC)=C5C)c(COC(=O)CCCC[P+](c1ccccc1)(c1ccccc1)c1ccccc1)c4C)[C@@H](C)[C@@H]3CCC(=O)OC ; measured Therapeutic Index: 2875.19

###

tested on: SKOV3 ovarian cancer cells; assay: Inherent cytotoxicity (dark toxicity): % viable SKOV3 cells (AlamarBlue) without light; type: cell-based, human; details: 24 h incubation, no light
Note to self: use 1 only for Dark toxicity (IC10) readings below 50 µM; a reading exactly at 50 µM still gets -1.

[
  {
    "molecule": "C=Cc1c(C)c2cc3nc(c(C)c4[nH]c(cc5nc(cc1[nH]2)C(C)=C5CC)c(C)c4C(=O)O)[C@@H](CCC(=O)O)[C@@H]3C [Chlorin e4 disodium, chlorin e4 disodium, reference compound]",
    "label class": 1
  }
]

// switching to the query molecule
QUERY: In the record for CCCCCCN1C(=O)c2c3nc(cc4[nH]c(cc5nc(cc6[nH]c2c(c6C)C1=O)C(CC)=C5C)c(COC(=O)CCCC[P+](c1ccccc1)(c1ccccc1)c1ccccc1)c4C)[C@@H](C)[C@@H]3CCC(=O)OC , is Dark toxicity (IC10) less than 50 µM?
RESULT: -1
